System: EBV
procedure.summary: Anti-EBV activity, EBV DNA slot blot in H1 cells
Assay type: cell-based, Epstein Barr virus
condition.set: human gammaherpesvirus 4, 120 h, concentration that inhibits 50% of virus growth, 5 days
readout.kind: pIC50
Note: pIC50 values are expressed as the negative base-10 logarithm of concentration in M.

The molecule O=c1[nH]c(=O)n([C@@H]2CO[C@H](CO)O2)cc1/C=C/I [L-β-IVOddU] showed pIC50 equal to 5.39

* * *

Measured IC50 of individual entries
Test system: HSV-1
procedure.summary: Virus growth inhibition assay, HSV plaque reduction
Type: cell-based, Herpes Simplex virus
condition.set: Human alphaherpesvirus 1, concentration that inhibits 50% of virus growth
Number only, in µM; omit the unit.

The molecule `O=c1[nH]c(=O)n([C@@H]2CO[C@H](CO)O2)cc1/C=C/Br` showed IC50 equal to 36

The molecule `O=c1[nH]c(=O)n([C@@H]2CO[C@H](CO)O2)cc1/C=C/Cl` showed IC50 equal to 18

The molecule Nc1nc2c(ncn2COCCO)c(=O)[nH]1 [Acyclovir, reference compound] showed IC50 equal to 13.6

Next:
The molecule `O=c1[nH]c(=O)n([C@@H]2CO[C@H](CO)O2)cc1/C=C/I` showed IC50 equal to 33
